# System: SN12C renal
# measurement notes: NCI tumour cell line growth inhibition, 48 h; in the data active = GI50 below about 0.43 µM; inactive = the rest
Pick from True for active, False for inactive when you respond.

Example cases with answers are listed next.
>>> discrete_label("Clc1ccc(-c2nc3c(-c4ccccc4)nc(-c4ccccc4)cn3c2-c2ccc(Cl)cc2)cc1")
"False"
>>> discrete_label("O=C(Nc1ccc(Oc2ccc(NC(=O)Nc3ccccc3Cl)cc2)cc1)Nc1ccccc1Cl")
"False"
>>> discrete_label("COc1ccc(/C(=C/c2ccc3ccccc3c2)c2nn[nH]n2)cc1OC")
"False"

Enquiry: Call for entry O=C(CN1CCN(CCN2C(=O)c3cccc4cccc(c34)C2=O)CC1)Nc1ccc2ncsc2c1 :
Return: False

Enquiry: Call for entry C[C@@H]1CC[C@H]2[C@@H](C)C(OC/C=C/COC3O[C@@H]4O[C@@]5(C)CC[C@H]6[C@H](C)CC[C@@H]([C@H]3C)[C@@]46OO5)O[C@@H]3O[C@@]4(C)CC[C@@H]1[C@]32OO4 (some centres not stated) :
Return: True

Enquiry: Call for entry CS(=O)(=O)c1ccc2c(c1)C(=O)c1c-2n(CCCBr)c(=O)c2cc([N+](=O)[O-])ccc12 :
Return: False

Enquiry: Call for entry CC(C)C(=O)Nc1ccc(-c2nc(-c3cccc(OCCN4CCOCC4)c3)c(-c3ccnc(Br)c3)[nH]2)cc1 :
Return: False

====

# System: HL-60(TB) leukemia
# measurement notes: NCI tumour cell line growth inhibition, 48 h
readout kind: TGI

Record excerpt, results attached:
>>> measured_value("CC(C)NC(=O)OCc1nnn2c1CCC2")
"> 100 µM"
>>> measured_value("O=C(O)c1ccc(NCc2nc3ccccc3[nH]2)cc1")
"> 100 µM"
>>> measured_value("CCC(C)C(=O)O[C@H]1C(=O)O[C@@H]2C[C@H]3C(C)=CC(=O)[C@@H](O)[C@]3(C)[C@H]3[C@@H](O)[C@H](O)[C@@]4(C)OC[C@]32[C@@H]14 (some centres undefined)")
"< 0.01 µM"
>>> measured_value("CN1C(=S)CSc2ccccc21")
"> 100 µM"

Fill in TGI for each of the 8 compounds listed.
1. Cc1cc2nc3c(=O)[nH]c(=O)nc-3n(CC(O)C(O)C(O)CO)c2cc1N (centres undefined)
2. O=c1oc2ccc3ccccc3c2cc1-c1nc(-c2ccc([N+](=O)[O-])cc2)n[nH]1
3. CCOC(=O)NC(=O)c1cn(CCCCCCCCCCC(=O)NCCCN2CCN(CCCNC(=O)CCCCCCCCCCn3cc(C(=O)NC(=O)OCC)c(=O)[nH]c3=O)CC2)c(=O)[nH]c1=O
4. COc1ccc2nc3c(C)cc4ccccc4n3c2c1
5. CS(=O)(=O)O[C@H]1C(=O)N(c2cc3c4ccccc4ccc3c3ccccc23)[C@@H]1c1ccccn1
6. O=C1C[C@@H]2[C@@H](CCC23CCCC3)N1
7. CC(=O)Nc1ncc2c(n1)-c1ccccc1OC2c1ccccc1 (centres undefined)
8. O=[N+]([O-])c1cnc(N(CCO)CCO)s1

Return:
1: > 100 µM; 2: > 100 µM; 3: > 100 µM; 4: > 100 µM; 5: > 100 µM; 6: > 100 µM; 7: > 100 µM; 8: > 100 µM

====

# System: UACC-62 melanoma
# measurement notes: NCI tumour cell line growth inhibition, 48 h
readout kind: TGI

Record excerpt, results attached:
>>> measured_value("CN1CCN(Cc2ccc(NC(=O)c3cncc(C#Cc4c(N)ncc5c(F)cccc45)c3)cc2C(F)(F)F)CC1")
"1.81 µM"
>>> measured_value("COC(=O)CC1C2(C)C3=C(C)C(c4ccoc4)CC3OC2C2OC(=O)C3(C)C=CC(=O)C1(C)C23 (stereo unspecified)")
"3.79 µM"
>>> measured_value("CC(C(=O)NCCNC(=O)CCCC(=O)N(C)O)C(=O)NCCNC(=O)CCCC(=O)N(C)O")
"> 100 µM"
>>> measured_value("O=C[C@]12CC=C3OC4OC5(CCCCC5)OC4[C@H]3[C@H]1C(=O)C=CC2=O (stereo partly specified)")
"52.6 µM"
>>> measured_value("N#CCCN(C1=NN(C(=O)CC(=O)Nc2ccc(Cl)cc2)C(c2ccccc2)C1)c1ccc(Cl)cc1 (stereo unspecified)")
"> 100 µM"

Fill in TGI for each of the 7 molecules listed.
1. CC(=O)N(C)c1cc(NCc2ccccc2)ccc1OCc1ccccc1
2. CSC1=C(SC)C(=O)c2cn(C)c(=O)cc2C1=O
3. COc1cc(-c2cc(-c3cccs3)c(C#N)c(N3CCOCC3)n2)cc(OC)c1OC
4. COC(=O)[C@H](Cc1ccccc1)NNC(=O)c1csc([C@@H](C[C@H](C(C)C)N(C)C(=O)[C@@H](NC(=O)[C@H]2CCCCN2C)C2CC2)OC(C)=O)n1
5. Clc1cc2nc(C3CCCCO3)[nH]c2cc1Cl (stereo unspecified)
6. NC1=NCC(CN2CCCCC2)O1 (stereo unspecified)
7. Cc1ccc(S(=O)(=O)NN=C2C(C)(C)CC2(C)C)cc1

Return:
1: 31.8 µM; 2: 7.21 µM; 3: > 100 µM; 4: 25 µM; 5: > 100 µM; 6: > 100 µM; 7: > 100 µM

Fill in TGI for each of the 3 molecules listed.
1. Cc1cccc2c(N)c3cccc(C(=O)NCC[N+](C)(C)Cc4ccc(S(C)(=O)=O)cc4)c3nc12
2. O=[N+]([O-])c1ccc(NNN=Nc2ccc(-c3nc4ccccc4[nH]3)cc2)c([N+](=O)[O-])c1
3. C=C[C@]1(C)CC(=O)C(C(C)C=O)[C@]12C(=O)Oc1cccc(C)c1C2=O (stereo partly specified)

Return:
1. > 100 µM
2. 38 µM
3. 31 µM

Fill in TGI for each of the 2 molecules listed.
1. Cc1ccc(N=NN(C)C(C)C(O)Cc2ccccc2)cc1 (stereo unspecified)
2. Cc1cc(N(CCC#N)CCC#N)ccc1/C=C1N=C(/C=C/c2ccccc2)N(c2ccc(S(N)(=O)=O)cc2)C\1=O

Return:
1: > 100 µM; 2: > 100 µM

Fill in TGI for each of the 4 molecules listed.
1. C[C@@H](Oc1ccc(Oc2cnc3ccc(Cl)cc3n2)cc1)C(=O)O
2. COc1cc(N2CCN(C(C)C)CC2)ccc1Nc1nc(Nc2ccc(F)cc2C(=O)NCC(O)CO)c2cc[nH]c2n1 (stereo unspecified)
3. N#CC(C#N)=Cc1ccc(C(O)P(=O)(O)O)cc1 (stereo unspecified)
4. O=C(O)C1CC(C2CCCCN2)CN2CCCCC12 (stereo unspecified)

Return:
["> 100 µM", "> 25 µM", "> 100 µM", "> 100 µM"]

====

# Test system: HL-60(TB) leukemia
# measurement notes: NCI tumour cell line growth inhibition, 48 h
Field: TGI. Provide a value for each of the compounds that follow.

Record excerpt, results attached:
>>> measured_value("COc1ccc(N2C(=O)C(=O)N(C)C2=O)c2ccccc12")
"> 10 µM"
>>> measured_value("CC12CCCC(C#N)(C1)OC2=O (configuration not stated)")
"> 100 µM"
>>> measured_value("Clc1cc2nc(C3CCCCO3)[nH]c2cc1Cl (configuration not stated)")
"> 53.5 µM"
>>> measured_value("COC(=O)C1CC(c2ccc(Cl)cc2)=NO1 (configuration not stated)")
"> 100 µM"
>>> measured_value("Cc1c2oc3c(C)cnc(C(=O)NC4C(=O)NC(C(C)C)C(=O)N5CCCC5C(=O)N(C)CC(=O)N(C)C(C(C)C)C(=O)OC4C)c3nc-2c(C(=O)NC2C(=O)NC(C(C)C)C(=O)N3CCCC3C(=O)N(C)CC(=O)N(C)C(C(C)C)C(=O)OC2C)c(N)c1=O (configuration not stated)")
"> 26 µM"

Fill in TGI for each of the 2 compounds listed.
1. COc1ccc(C2=NN(C=O)C(c3ccc(OS(=O)(=O)c4ccc(C)cc4)c(OC)c3)C2)cc1 (configuration not stated)
2. O=C(CCC(=O)Nc1ccc(Cl)cc1)CC(=O)c1ccc2ccccc2c1

Return:
1. > 100 µM
2. > 100 µM

Data provenance is PubChem BioAssay (NCI).
